Experiment: in vitro
Details: human, blood
Measure: half-life (h)

COc1cc(C(C)C)c2c(c1)S(=O)(=O)N(COC1=C(c3ccccc3)C(=O)OC1C)C2=O (stereo not given) = 2.57

(I) COc1cc(C(C)C)c2c(c1)S(=O)(=O)N(COc1cc(=O)n3c(n1)CCCC3)C2=O
(II) COc1cc(C(C)C)c2c(c1)S(=O)(=O)N(COC(=O)c1c(Cl)cccc1Cl)C2=O
In: Determine, for I and II , which has the greater value of half-life. Returns: label corresponding to the selected item.
Out: II
(II: 2.33 h, I: 0.85 h)

====

Experiment: in vitro
Conditions: human, blood
Measure: half-life (min)

CC(C)c1cccc2c1C(=O)N(COc1nc3ccccn3c(=O)c1Cl)S2(=O)=O = 50

(1) COc1cc(C(C)C)c2c(c1)S(=O)(=O)N(COC1=C(Cc3ccccc3)C(=O)CC1)C2=O
(2) COc1cc(C(C)C)c2c(c1)S(=O)(=O)N(COc1cc(=O)oc3ccccc13)C2=O
In: Of the pair 1 and 2 , name the member with the lesser recorded half-life. Returns: label corresponding to the selected item.
Out: 1

====

Test: in vitro
Conditions: human, liver
Description: Half life in human liver at 37 degree C
Measure: half-life (h)

COc1cc(C(C)C)c2c(c1)S(=O)(=O)N(COC1=C(c3ccccc3)C(=O)OC1C)C2=O (stereo unspecified) = 1.37
COc1cc(C(C)C)c2c(c1)S(=O)(=O)N(COC1=C(Cc3ccccc3)C(=O)OC1)C2=O = 1.25
COc1cc(C(C)C)c2c(c1)S(=O)(=O)N(COc1cc(=O)n3ccccc3n1)C2=O = 1.7
COc1cc(C(C)C)c2c(c1)S(=O)(=O)N(COC(=O)c1c(Cl)cccc1Cl)C2=O = 1.22

(a) COc1cc(C(C)C)c2c(c1)S(=O)(=O)N(COc1nc3ccccn3c(=O)c1C)C2=O
(b) COc1cc(C(C)C)c2c(c1)S(=O)(=O)N(COC1=C(Cc3ccccc3)C(=O)OC1C)C2=O (stereo unspecified)
In: Determine, for a and b , which has the greater value of half-life. Returns: label corresponding to the selected item.
Out: a
(a: 1.72 h, b: 0.583 h)

====

Experiment: in vitro
Details: human, blood
Measure: half-life (h)

(1) COc1cc(C(C)C)c2c(c1)S(=O)(=O)N(COc1cc(=O)n3ccccc3n1)C2=O
(2) COc1cc(C(C)C)c2c(c1)S(=O)(=O)N(COC1=C(Cc3ccccc3)C(=O)OC1C)C2=O (configuration not stated)
(3) COc1cc(C(C)C)c2c(c1)S(=O)(=O)N(COC1=C(C)C(=O)CCC1)C2=O
In: Which order do these items take when sorted by rising half-life? List them. // rank by listing labels in the order requested
Out: 3, 1, 2
(3: 0.267 h, 1: 1.78 h, 2: 2.82 h)

====

Experiment: in vitro
Conditions: human, blood
Measure: half-life (min)

Illustrative cases are given below, each with its answer.
COc1cc(C(C)C)c2c(c1)S(=O)(=O)N(COc1nc3ccccn3c(=O)c1C)C2=O = 350
CCC(C)c1cccc2c1C(=O)N(COc1nc3ccccn3c(=O)c1Cl)S2(=O)=O (centres undefined) = 230
COc1cc(C(C)C)c2c(c1)S(=O)(=O)N(COC1=CC(=O)N(Cc3ccccc3)C1)C2=O = 14

(P) COc1cc(C(C)C)c2c(c1)S(=O)(=O)N(COC1=C(c3ccccc3)C(=O)OC1)C2=O
(Q) COc1cc(C(C)C)c2c(c1)S(=O)(=O)N(COC1=C(Cc3ccccc3)C(=O)OC1)C2=O
In: Of the pair P and Q , name the member with the lesser recorded half-life. Returns: label corresponding to the selected item.
Out: P
